# Test system: production of nitric oxide (NO)
# ASSAY REMARKS: Production of nitric oxide (NO) in cultures of mouse peritoneal cells stimulated with IFN-γ plus LPS (Griess reagent)
# Type: cell-based, mice
# SETTINGS: Table 3B; substance 50 μmol·l^−1; IFN-g plus LPS; 24 h
READOUT TYPE: Production of nitric oxide in % of the controls

compound="CCCCc1c(-c2ccc(OC)cc2)nc(N)nc1-c1ccsc1 [Substance 109]" test_target="production of nitric oxide (NO)" result="73.38 ± 4.58; n = 6 % of the controls"

Input: # lookup: Production of nitric oxide in % of the controls of CCCCc1c(-c2ccc(OC)cc2)nc(N)nc1-c1cccnc1 [Substance 80]
Output: 35.18 ± 4.39; n = 4 % of the controls

Input: State the recorded Production of nitric oxide in % of the controls for this entry: CCCCc1c(-c2ccc(OC)cc2)nc(N)nc1-c1cccc2ccccc12 [Substance 134]
Output: 33.09 ± 7.25; n = 8 % of the controls

Input: Reported Production of nitric oxide in % of the controls for CCCCc1c(-c2cccnc2)nc(N)nc1-c1cccc2ccccc12 [Substance 136] : what is it?
Output: 70.28 ± 3.71; n = 4 % of the controls

Input: Reported Production of nitric oxide in % of the controls, compound CCCCc1c(-c2ccc(F)cc2)nc(N)nc1-c1ccco1 [Substance 95] : ____
Output: 61.96 ± 6.41; n = 6 % of the controls

Input: GET /values?readout=Production of nitric oxide in % of the controls&item= CCCCc1c(-c2ccc(F)cc2)nc(N)nc1-c1ccc(OC)cc1 [Substance 73]
Output: 65.09 ± 4.11; n = 6 % of the controls

Input: Reported Production of nitric oxide in % of the controls, compound CCCCc1c(Cl)nc(N)nc1-c1cc2ccccc2s1 [Substance 132] : ____
Output: 49.61 ± 6.36; n = 4 % of the controls
